System: Anaerococcus vaginalis
ASSAY_DETAILS: Antimicrobial activity against Anaerococcus vaginalis under anaerobic conditions after 44 hrs by CLSI-M11-47 protocol based agar dilution method
Type: functional
MEASUREMENT_NAME: MIC90

{"columns": ["SMILES_REPRESENTATION", "MEASUREMENT_NAME", "VALUE"],
 "data": [
  ["Cc1ncc([N+](=O)[O-])n1CCO", "MIC90", "4 µg/mL"]
]}

**Q:** Name the recorded MIC90 for CCO/N=C(\C(=O)N[C@@H]1C(=O)N2C(C(=O)[O-])=C(Sc3nc(-c4cc[n+](C)cc4)cs3)CS[C@H]12)c1nsc(NP(=O)(O)O)n1 .
**A:** 1 µg/mL

**Q:** GET /values?readout=MIC90&item= CO/N=C(\C(=O)N[C@@H]1C(=O)N2C(C(=O)O)=C(CSc3nc(=O)c(O)nn3C)CS[C@H]12)c1csc(N)n1
**A:** 16 µg/mL

Provenance of the data: ChEMBL document CHEMBL1255409
